src = the supplement of paper PMC4380931

Test system: WM1552C
ASSAY DETAILS: relative viability (cell count relative to DMSO-treated control) (fraction of DMSO control); higher = more viable cells / less drug effect
CONDITION CONTEXT: 72 h; 3.16 µM
READOUT NAME: relative viability
# print the numeric value only

Use the examples below as a reference point.
- Cn1cnc2c(F)c(Nc3ccc(Br)cc3Cl)c(C(=O)NOCCO)cc21: 0.411
- Cc1ccc(NC(=O)c2cccc(C(C)(C)C#N)c2)cc1Nc1ccc2ncn(C)c(=O)c2c1: 0.442
- CN(C)CCOc1ccc(-c2nc(-c3ccncc3)c(-c3ccc4c(c3)CC/C4=N\O)[nH]2)cc1: 0.616

Reported relative viability for CCCS(=O)(=O)Nc1ccc(F)c(C(=O)c2c[nH]c3ncc(-c4ccc(Cl)cc4)cc23)c1F : what is it?
0.42

Reported relative viability for CCCS(=O)(=O)Nc1ccc(F)c(C(=O)c2c[nH]c3ncc(Cl)cc23)c1F : what is it?
0.497
